These data points were gathered from paper PMC6423129.

tested on: CC1/85 cl.6; assay: Anti-HIV-1 assay, drug-naive clinical strain CC1/85 cl.6; assay type: cell-based; details: Human immunodeficiency virus 1; CC1/85 cl.6, drug naive R5-HIV-1 clinical strain; read-out: IC50
Measured property: pIC50
Bear in mind: pIC50 is minus log10 of a mol/L concentration; give just that figure.

CCO/N=C(\c1ccc(Br)cc1)C1CCN(C2(C)CCN(C(=O)c3c(C)cc[n+]([O-])c3C)CC2)CC1	8.28

From here, focus on the item given below.
# query: pIC50 | item CCCCN1C(=O)[C@@H]([C@H](O)C2CCCCC2)NC(=O)C12CCN(Cc1ccc(Oc3ccc(C(=O)O)cc3)cc1)CC2 | system: CC1/85 cl.6
8.82

====

system: pCH058.c/2960; experiment: MAGI assay, T/F HIV-1 clone pCH058.c/2960; format: cell-based; conditions: Human immunodeficiency virus 1, MAGI
Listed compounds paired with reported IC50
State just the number; it will be interpreted in nM.

The cases that follow already have their IC50 on record.
CCCCN1C(=O)[C@@H]([C@H](O)C2CCCCC2)NC(=O)C12CCN(Cc1ccc(Oc3ccc(C(=O)O)cc3)cc1)CC2	1.7
Cc1cccc(C)c1C(=O)N1C2CCC1CC(N1CCN(C(C)c3ccc(C(F)(F)F)cc3)C(C)C1)C2 (stereo not shown) [GRL-10007C]	6.1
C=CCN(C(=O)OCC1COC2OCCC12)C1CC2CCC(C1)N2CCC(C)(CN(C)S(=O)(=O)c1ccccc1)c1ccccc1 (stereo not shown) [GRL-10018C]	8

Next compound, please.
State the recorded IC50 for this entry: C=CCN(C(=O)OCc1ccc([N+](=O)[O-])cc1)C1CC2CCC(C1)N2CCC(C)(CN(C)S(=O)(=O)c1ccccc1)c1ccccc1 (stereo not shown) [GRL-117C]
3.2

====

tested on: CC1/85 cl.7; experiment: Anti-HIV-1 assay, drug-naive clinical strain CC1/85 cl.7; assay type: cell-based; conditions: Human immunodeficiency virus 1
Measured property: IC50 (nM)
Number only, in nM; omit the unit.

The cases that follow already have their IC50 on record.
C=CCN(C(=O)OCc1ccc([N+](=O)[O-])cc1)C1CC2CCC(C1)N2CCC(C)(CN(C)S(=O)(=O)c1ccccc1)c1ccccc1 (centres unmarked) [GRL-117C]	3.5
Cc1cccc(C)c1C(=O)N1C2CCC1CC(N1CCN(C(C)c3ccc(C(F)(F)F)cc3)C(C)C1)C2 (centres unmarked) [GRL-10007C]	15.8
CCO/N=C(\c1ccc(Br)cc1)C1CCN(C2(C)CCN(C(=O)c3c(C)cc[n+]([O-])c3C)CC2)CC1	6.1
CCCCN1C(=O)[C@@H]([C@H](O)C2CCCCC2)NC(=O)C12CCN(Cc1ccc(Oc3ccc(C(=O)O)cc3)cc1)CC2	1.8

Please turn your attention to the following entry.
Recall the recorded IC50 for C=CCN(C(=O)OCC1COC2OCCC12)C1CC2CCC(C1)N2CCC(C)(CN(C)S(=O)(=O)c1ccccc1)c1ccccc1 (centres unmarked) [GRL-10018C] with CC1/85 cl.7 and state it.
4.9

====

system: R5-HIV-1BaL; experiment: p24 assay using PBMCs and R5-HIV-1BaL; assay type: cell-based; settings: Human immunodeficiency virus 1, BAL, PBMC, 168 h, Ba-L (PBMCs), day 7
In plain terms, low IC90, meaning strictly below 100 nM, gives Fulfilled, and everything else gives Not fulfilled.

Dear colleague, could you confirm whether IC90 of C=CCN(C(=O)OCC1COC2OCCC12)C1CC2CCC(C1)N2CCC(C)(CN(C)S(=O)(=O)c1ccccc1)c1ccccc1 (centres unmarked) [GRL-10018C] falls below 100 nM? Thanks.
Not fulfilled

Lab note: confirm whether the reported IC90 for this compound is below 100 nM, equality not counting. compound: C=CCN(C(=O)OCc1ccc([N+](=O)[O-])cc1)C1CC2CCC(C1)N2CCC(C)(CN(C)S(=O)(=O)c1ccccc1)c1ccccc1 (centres unmarked) [GRL-117C]
Fulfilled

API: query returns whether the compound falls strictly under 100 nM in IC90. Query: Cc1cccc(C)c1C(=O)N1C2CCC1CC(N1CCN(C(C)c3ccc(C(F)(F)F)cc3)C(C)C1)C2 (centres unmarked) [GRL-10007C]
Not fulfilled

Field: below-cutoff. Rule: recorded IC90 strictly less than 100 nM. Subject: CCCCN1C(=O)[C@@H]([C@H](O)C2CCCCC2)NC(=O)C12CCN(Cc1ccc(Oc3ccc(C(=O)O)cc3)cc1)CC2 [APL]
Fulfilled

====

molecular target: CCR5 (Homo sapiens, UniProt P51681); construct: expressed in transfected cells; host or cells: Chinese hamster ovary (CHO) cells expressing CCR5; assay: Inhibition of 125I-RANTES binding to CCR5 (CCR5+ CHO cells)
Sequence (P51681 whole entry): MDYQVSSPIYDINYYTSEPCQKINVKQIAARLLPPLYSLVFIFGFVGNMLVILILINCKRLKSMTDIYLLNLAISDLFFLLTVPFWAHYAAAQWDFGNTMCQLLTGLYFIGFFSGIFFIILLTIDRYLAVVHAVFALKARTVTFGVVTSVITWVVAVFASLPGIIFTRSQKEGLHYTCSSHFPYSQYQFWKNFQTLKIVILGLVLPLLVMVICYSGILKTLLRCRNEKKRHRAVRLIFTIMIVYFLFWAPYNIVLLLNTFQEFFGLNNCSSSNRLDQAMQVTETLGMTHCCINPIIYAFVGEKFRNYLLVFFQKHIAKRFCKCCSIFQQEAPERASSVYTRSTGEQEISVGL
compounds and their reported pEC50
Field pEC50 (float): negative decimal logarithm of the concentration in molar.

Below, 2 compounds whose answers are already recorded.
C=CCN(C(=O)OCc1ccc([N+](=O)[O-])cc1)C1CC2CCC(C1)N2CCC(C)(CN(C)S(=O)(=O)c1ccccc1)c1ccccc1 (stereo not drawn) [GRL-117C]	6.92
C=CCN(C(=O)OCC1COC2OCCC12)C1CC2CCC(C1)N2CCC(C)(CN(C)S(=O)(=O)c1ccccc1)c1ccccc1 (stereo not drawn) [GRL-10018C]	7.77

Moving on to the next compound.
Using the record for Cc1cccc(C)c1C(=O)N1C2CCC1CC(N1CCN(C(C)c3ccc(C(F)(F)F)cc3)C(C)C1)C2 (stereo not drawn) [GRL-10007C] , report its pEC50.
6.20

====

test system: CC101.19 cl.7 (AD101 resistant); assay: microbe, parasite or virus in culture; format: cell-based, HIV-1; details: CC101.19 cl.7 (AD101 resistant); read-out: IC50
Measured property: IC50 (nM)
Kindly provide the numeric value in nM only, without the unit symbol.

Name the recorded IC50 for Cc1ccc(-c2ccc3c(c2)C=C(C(=O)Nc2ccc(C[N+](C)(C)C4CCOCC4)cc2)CCC3)cc1.[Cl-] .
400

====

target: CCR5 (Homo sapiens, UniProt P51681); construct: expressed in transfected cells; host or cells: Chinese hamster ovary (CHO) cells expressing CCR5; experiment: Inhibition of 125I-MIP-1α binding to CCR5 (CCR5+ CHO cells)
Measured property: pEC50
Quick note: pEC50 values are minus log10 of concentrations in mol/L.

Guide cases for pEC50, answers given:
C=CCN(C(=O)OCc1ccc([N+](=O)[O-])cc1)C1CC2CCC(C1)N2CCC(C)(CN(C)S(=O)(=O)c1ccccc1)c1ccccc1 (stereo not drawn) [GRL-117C]	8.37
Cc1cccc(C)c1C(=O)N1C2CCC1CC(N1CCN(C(C)c3ccc(C(F)(F)F)cc3)C(C)C1)C2 (stereo not drawn) [GRL-10007C]	8.96

Then this compound:
Given the entry C=CCN(C(=O)OCC1COC2OCCC12)C1CC2CCC(C1)N2CCC(C)(CN(C)S(=O)(=O)c1ccccc1)c1ccccc1 (stereo not drawn) [GRL-10018C] , report its measured pEC50.
9.52

====

Tested on: R5-HIV-1Ba-L
Assay: MAGI assay using MAGI/CCR5 cells and R5-HIV-1Ba-L
Format: cell-based
Conditions: Human immunodeficiency virus 1, BAL, Ba-L (MAGI)
Experimental: MAGI-CCR5 cells[18] were maintained in DMEM supplemented with 10% fetal calf serum (FCS: Gemini Bio-Products, West Sacramento, CA), 200 μg/ml G418, 100 μg/ml hygromycin B, and 100 μg/ml zeomycin. […] Antiviral assays using PHA-PBMCs (p24 assay) were conducted as previously reported[16],[38]. […] The amount of p24 antigens produced by the cells was determined on day 7 in the culture via a commercially available ELISA kit (PerkinElmer). […]
Measured property: IC50 (nM)
Form entry: value (nM) — number only.

Recorded IC50 for Cc1cccc(C)c1C(=O)N1C2CCC1CC(N1CCN(C(C)c3ccc(C(F)(F)F)cc3)C(C)C1)C2 (centres unmarked) [GRL-10007C] , please?
1.4

Find the recorded IC50 belonging to CCCCN1C(=O)[C@@H]([C@H](O)C2CCCCC2)NC(=O)C12CCN(Cc1ccc(Oc3ccc(C(=O)O)cc3)cc1)CC2 and report it.
0.2

Could you tell me which IC50 is on file for C=CCN(C(=O)OCc1ccc([N+](=O)[O-])cc1)C1CC2CCC(C1)N2CCC(C)(CN(C)S(=O)(=O)c1ccccc1)c1ccccc1 (centres unmarked) [GRL-117C] ?
0.6

Fill blank: measured IC50 of the molecule C=CCN(C(=O)OCC1COC2OCCC12)C1CC2CCC(C1)N2CCC(C)(CN(C)S(=O)(=O)c1ccccc1)c1ccccc1 (centres unmarked) [GRL-10018C] is ____.
2.9

Reported IC50 for CCO/N=C(\c1ccc(Br)cc1)C1CCN(C2(C)CCN(C(=O)c3c(C)cc[n+]([O-])c3C)CC2)CC1 : what is it?
4.8
